// compounds with IC50 on Poly [ADP-ribose] polymerase 1 (Homo sapiens), multi-source literature

[
  {
    "Compound": "CC1(c2cnn3c2[nH]c2cc(F)cc(C(N)=O)c23)CCS(=O)(=O)CC1",
    "IC50": "1 to 100 nM"
  },
  {
    "Compound": "O=C(CCCc1nc2ccccc2c(=O)[nH]1)N[C@H]1CC[C@H](c2nnc(-c3ccncc3)o2)CC1",
    "IC50": "2840 nM"
  },
  {
    "Compound": "CCOC(=O)Nc1nc2cc(-c3n[nH]c(=O)c4ccccc34)cc(C)c2[nH]1",
    "IC50": "> 10000 nM"
  },
  {
    "Compound": "O=c1[nH]c2c(c3ccccc13)CO[C@@H](C1CCCC1)C2 (single isomer, unassigned)",
    "IC50": "30.6 nM"
  },
  {
    "Compound": "O=C(CCCc1nc2ccccc2c(=O)[nH]1)N1CCC(n2c(=O)[nH]c3cccnc32)CC1",
    "IC50": "4930 nM"
  },
  {
    "Compound": "O=C1CCc2cc(N3CCN([C@H]4C=C(c5cc6ncccc6c(=O)[nH]5)CC4)CC3)ccc21",
    "IC50": "0.5 to 5 nM"
  },
  {
    "Compound": "NC(=O)c1cccc2cn(-c3ccc(C4(F)CCCNC4)c(F)c3)nc12 (centres unmarked)",
    "IC50": "< 100 nM"
  },
  {
    "Compound": "CCOC(=O)Nc1nc2cc(-c3n[nH]c(=O)c4ccc(F)cc34)ccc2[nH]1",
    "IC50": "> 10000 nM"
  }
]

###

// compounds with pIC50 on Poly [ADP-ribose] polymerase 1 (Homo sapiens), multi-source literature
pIC50: −log10 of the molar value.
Property Name: pIC50

[
  {
    "Compound": "O=c1[nH]c(C2=CC(N3C4CCC3CN(c3ccc(Cl)cc3)C4)CC2)nc2c1CC1(CC2)CC1 (centres unmarked)",
    "Property Name": "pIC50",
    "Result": "3.30 to 5.30"
  },
  {
    "Compound": "NC(=O)c1cc(F)cc2[nH]c3c(C4CCN(CCO)CC4)cnn3c12",
    "Property Name": "pIC50",
    "Result": "7.00 to 9.00"
  },
  {
    "Compound": "Cc1cc(=O)[nH]c(SCCC(=O)N[C@H]2CC[C@H](c3nnc(-c4ccccc4)o3)CC2)n1",
    "Property Name": "pIC50",
    "Result": "< 4.07"
  },
  {
    "Compound": "CCOC(=O)c1ccc(N2CCN(c3nc4c(ccn4C)c(=O)[nH]3)CC2)cc1",
    "Property Name": "pIC50",
    "Result": 6.25
  },
  {
    "Compound": "CC(C)(F)CN1CCC(c2cnn3c2[nH]c2cc(F)cc(C(N)=O)c23)CC1",
    "Property Name": "pIC50",
    "Result": "7.00 to 9.00"
  },
  {
    "Compound": "CC(CCc1nc2c(c(=O)[nH]1)CC1(CC2)CC1)N1CCN(c2ccc(F)cc2)CC1 (centres unmarked)",
    "Property Name": "pIC50",
    "Result": "6.30 to 9.00"
  },
  {
    "Compound": "O=c1[nH]c(-c2ccc(C(F)(F)F)cc2)nc2c1ccn2CCC(O)CO (centres unmarked)",
    "Property Name": "pIC50",
    "Result": 5.62
  },
  {
    "Compound": "O=C(CCCc1nc2ccccc2c(=O)[nH]1)N1CCC(n2c(=O)[nH]c3c(F)cccc32)CC1",
    "Property Name": "pIC50",
    "Result": 5.89
  }
]

###

// molecules with IC50 on Poly [ADP-ribose] polymerase 1 (Homo sapiens, UniProt P09874), multi-source literature

[
  {
    "Structure Smiles": "O=C(c1cc(Cn2c(=O)[nH]c(=O)c3ccccc32)ccc1F)N1CC=C(c2ccc(F)cc2)CC1",
    "System Name": "Poly [ADP-ribose] polymerase 1 (Homo sapiens, UniProt P09874)",
    "IC50": "0.1 to 10 nM"
  },
  {
    "Structure Smiles": "O=C(c1cc(Cn2c(=O)[nH]c(=O)c3ccccc32)ccc1F)N1Cc2cccc(F)c2C1",
    "System Name": "Poly [ADP-ribose] polymerase 1 (Homo sapiens, UniProt P09874)",
    "IC50": "0.1 to 10 nM"
  },
  {
    "Structure Smiles": "O=c1[nH]c(CCCN2CCN(c3ccccn3)CC2)nc2c1CC1(CC2)CC1",
    "System Name": "Poly [ADP-ribose] polymerase 1 (Homo sapiens, UniProt P09874)",
    "IC50": "5000 to 500000 nM"
  },
  {
    "Structure Smiles": "O=c1[nH]c([C@H]2CC[C@@H](N3CCN(c4ccc(Cl)cc4)CC3)C2)nc2c1CC1(CC2)CC1",
    "System Name": "Poly [ADP-ribose] polymerase 1 (Homo sapiens, UniProt P09874)",
    "IC50": "501 to 5000 nM"
  },
  {
    "Structure Smiles": "O=c1[nH]c(C2=C[C@H](N3CCN(c4cc(Cl)ccc4F)CC3)CC2)nc2c1CC1(CC2)CC1",
    "System Name": "Poly [ADP-ribose] polymerase 1 (Homo sapiens, UniProt P09874)",
    "IC50": "501 to 5000 nM"
  },
  {
    "Structure Smiles": "N#Cc1ccc(N2CCP(=O)(c3cc(Cc4n[nH]c(=O)c5ccccc45)ccc3F)CC2)nc1",
    "System Name": "Poly [ADP-ribose] polymerase 1 (Homo sapiens, UniProt P09874)",
    "IC50": "< 100 nM"
  },
  {
    "Structure Smiles": "C[C@@H]1[C@@H](Oc2ccc(C(=O)NC3CC3)nc2)CN1Cc1cnc2cc(C3CC3)c(=O)[nH]c2c1",
    "System Name": "Poly [ADP-ribose] polymerase 1 (Homo sapiens, UniProt P09874)",
    "IC50": "5.8 nM"
  }
]

###

// compounds with pIC50 on Poly [ADP-ribose] polymerase 1 (Homo sapiens), multi-source literature
pIC50: −log10 of the molar value.
Property Name: pIC50

[
  {
    "Compound": "CC1(C2Cc3[nH]c(=O)c4ccccc4c3CO2)CCCCC1 (racemic)",
    "Bound Operator": "=",
    "Numeric Result": 7.21
  },
  {
    "Compound": "CC(C)(C)OC(=O)N1CCC([C@H]2Cc3[nH]c(=O)c4ccccc4c3CO2)CC1 (single isomer, unassigned)",
    "Bound Operator": "=",
    "Numeric Result": 6.90
  },
  {
    "Compound": "Cc1nc2ccc(CN3CCN(c4ccc(C(=O)NC5CC5)nc4F)CC3)c(F)c2[nH]c1=O",
    "Bound Operator": "=",
    "Numeric Result": 8.35
  },
  {
    "Compound": "CC(C)CCN1CCP(=O)(c2cc(Cc3n[nH]c(=O)c4ccccc34)ccc2F)CC1",
    "Bound Operator": ">",
    "Numeric Result": 7.00
  },
  {
    "Compound": "Cc1cc2ncc(CN3CC[C@@H](Oc4ccc(C(=O)NC5CC5)nc4)C3)cc2[nH]c1=O",
    "Bound Operator": "=",
    "Numeric Result": 8.13
  },
  {
    "Compound": "Cn1ccc2c(=O)[nH]c(N3CC(C)(c4ccc(Br)cc4)C3)nc21",
    "Bound Operator": "=",
    "Numeric Result": 5.46
  },
  {
    "Compound": "O=C1NOCc2c(-c3ccc(C4CCCN4CCO)c(F)c3)[nH]c3cccc1c23 (stereo not shown)",
    "Bound Operator": "=",
    "Numeric Result": 8.42
  },
  {
    "Compound": "COc1ccc(-c2nnc([C@H]3CC[C@H](NC(=O)CCSc4nc5ccccc5c(=O)[nH]4)CC3)o2)cc1",
    "Bound Operator": "=",
    "Numeric Result": 5.35
  },
  {
    "Compound": "O=C(c1cc(Cc2n[nH]c(=O)c3ccccc23)ccc1F)N1CC2CN(CC3CC3)CC2C1 (stereo not shown)",
    "Bound Operator": "=",
    "Numeric Result": 7.33
  }
]

###

pIC50: −log10 of the molar value.
// compounds with pIC50 on Poly [ADP-ribose] polymerase 1 (Homo sapiens, UniProt P09874), multi-source literature
Property Name: pIC50

[
  {
    "Compound": "O=C(c1cc(Cc2n[nH]c(=O)c3ccccc23)ccc1F)N1CC2C(=O)N(Cc3ccccc3)C(=O)C2C1 (stereo not shown)",
    "Bound Operator": "=",
    "Numeric Result": 8.08
  },
  {
    "Compound": "N#Cc1ccc(O[C@H]2CC[C@H](NC(=O)CCCc3nc4ccccc4c(=O)[nH]3)CC2)cc1Cl",
    "Bound Operator": "=",
    "Numeric Result": 6.59
  },
  {
    "Compound": "NC(=O)c1cccc2[nH]c(C3Cc4ccccc4CN3)nc12 (stereo not shown)",
    "Bound Operator": ">",
    "Numeric Result": 6.30
  },
  {
    "Compound": "O=C(CCc1nc2ccccc2c(=O)[nH]1)N[C@H]1CC[C@H](c2nnc(-c3ccncc3)o2)CC1",
    "Bound Operator": "=",
    "Numeric Result": 5.61
  },
  {
    "Compound": "Cc1cccc2c(=O)[nH]c3c(c12)CO[C@@H](C(C)(C)CO)C3 (single isomer, unassigned)",
    "Bound Operator": "=",
    "Numeric Result": 7.15
  },
  {
    "Compound": "O=C(CN1CCC(C(=O)c2ccc(F)cc2)CC1)NCc1nc2c(c(=O)[nH]1)CCCC2",
    "Bound Operator": "=",
    "Numeric Result": 5.57
  },
  {
    "Compound": "COc1ccc(C(=O)C2CCN(CC(=O)NCc3cc4c(c(=O)[nH]3)COCC4)CC2)cc1",
    "Bound Operator": "=",
    "Numeric Result": 5.12
  },
  {
    "Compound": "CCn1ccc2c(=O)[nH]c(N3CCN(c4ccccc4F)CC3)cc21",
    "Bound Operator": "=",
    "Numeric Result": 4.68
  },
  {
    "Compound": "COc1ccc(-c2nnc(C3CCN(C(=O)CCCc4nc5ccccc5c(=O)[nH]4)CC3)o2)cc1",
    "Bound Operator": "=",
    "Numeric Result": 5.50
  },
  {
    "Compound": "CCc1cc2ncc(CN3C[C@H](Oc4ccc(C(=O)NC5COC5)nc4)[C@H]3C)cc2[nH]c1=O",
    "Bound Operator": "=",
    "Numeric Result": 8.17
  }
]
